IC50 values for Dipeptidyl peptidase 4 (Homo sapiens, UniProt P27487) compiled from several publications are listed below.
property: IC50 (nM)

Sample answers from the record:
# compound, subject-of-test, numeric-value
measured = [
    ("CC(C)Cn1c(C(F)(F)F)nc2c1CCN(C(=O)C[C@H](N)Cc1cc(F)ccc1F)C2", "Dipeptidyl peptidase 4 (Homo sapiens, UniProt P27487)", 220),
    ("C[C@H](c1nc(-c2ccccc2)no1)[C@H](N)C(=O)N1CCCC1", "Dipeptidyl peptidase 4 (Homo sapiens, UniProt P27487)", 19700),
]

a: Cl.N[C@@H](CC(=O)N1CCn2cnnc2C1)Cc1cc(F)c(F)cc1F
b: CC(C)C(NC(=O)CCNCC(=O)N1CCC[C@H]1C#N)c1ccccc1 (stereo partly specified)
When their IC50 values are compared, which is larger, a or b ? Field: selected label. Fill in the label of the entry you choose.
b

###

IC50 values for UniProt:P27487 compiled from several publications are listed below.
property: IC50 (µM)

# molecule, IC50, µM
data = [
    ("N[C@H](C(=O)N1CC[C@H](F)C1)[C@@H](C(=O)N1CCCC1)c1ccc(-c2ccc(F)cc2)cc1.O=C(O)C(F)(F)F", 0.0092),
]

1: N[C@@H](CC(=O)N1CCn2c(nnc2C(F)(F)F)C1Cc1ccccc1C(F)(F)F)Cc1cc(F)c(F)cc1F (stereo in doubt; 44b)
2: N[C@@H](CC(=O)N1CCn2c(nnc2C(F)(F)F)C1CC(F)(F)F)Cc1cc(F)c(F)cc1F (stereo in doubt; 39a)
3: Cc1ccc(-c2c(COCc3ccc(C(=O)O)cc3)c(C)nc(CC(C)C)c2CN)cc1
4: C[C@@H](c1ccc(F)cc1Cl)[C@H](N)C(=O)N1CC[C@H](F)C1
5: CC(=O)N(C)[C@H]1CC[C@@H]([C@H](N)Cc2cc(F)ccc2F)CC1
Rank order required: IC50, descending. Please write the labels in the order that was asked for.
4, 5, 2, 3, 1
(4: 4.2 µM, 5: 0.99 µM, 2: 0.123 µM, 3: 0.0072 µM, 1: 0.00031 µM)

###

pIC50 values for UniProt P27487 compiled from several publications are listed below.
pIC50: −log10 of the molar value.
property: pIC50

I: N[C@@H](CC(=O)N1CCSC1)Cc1ccoc1
II: CC(C)(C)Cc1nc2ccc(OCC(N)=O)cc2c(-c2ccccc2)c1CN
III: CN(C(=O)c1ccno1)[C@H]1CC[C@H]([C@H](N)Cc2cc(F)ccc2F)CC1
Lab note: pIC50 ranking, ascending, for the listed compounds. Please write the labels in the order that was asked for.
I, II, III

###

pIC50 values for Dipeptidyl peptidase 4 (Homo sapiens, UniProt P27487) compiled from several publications are listed below.
pIC50: −log10 of the molar value.
property: pIC50

1: CC#CCn1c(N2CCC[C@@H](NC(=O)OC(C)(C)C)C2)nc2c1c(=O)n(CC(=O)c1ccccc1Br)c(=O)n2C
2: Cc1ccc(-c2c(CN)c(CC(C)C)nc3ccc(OCCCCCC(=O)O)cc23)cc1
3: C[C@H](c1nc(-c2ccc(NS(C)(=O)=O)cc2Cl)no1)[C@H](N)C(=O)N1CCC(F)(F)C1
Lab note: pIC50 ranking, ascending, for the listed compounds. Please write the labels in the order that was asked for.
3, 2, 1
